Provide the reported glass transition temperature of each item.
Express your answer in °C, writing the number without its unit.

Q: Entry *CC(*)C(=O)OCC1(CC)COC(c2ccccc2)OC1 (repeat unit) has what glass transition temperature?
Ans: 50.00

Q: Item: *CC(*)c1cc(OC)c(OC(C)=O)c(OC)c1 (repeat unit)
Ans: 147.00

Q: Proceed to *CCOCCOCCOCCOC(=O)CCSCCC(=O)O* (repeat unit)
Ans: -38.00

Q: Also need *Oc1ccc(C2(c3ccc(Oc4ccc5c(=O)n6c7cc(Oc8ccc9c(c8)nc8c%10ccc(*)c%11cccc(c(=O)n98)c%11%10)ccc7nc6c6cccc4c56)cc3)c3ccccc3-c3ccccc32)cc1 (repeat unit) , thanks.
Ans: 396.00
